- measured_on: cyclophilin B (CypB) (Homo sapiens (Human), UniProt P23284)
- Sequence (P23284 34-216): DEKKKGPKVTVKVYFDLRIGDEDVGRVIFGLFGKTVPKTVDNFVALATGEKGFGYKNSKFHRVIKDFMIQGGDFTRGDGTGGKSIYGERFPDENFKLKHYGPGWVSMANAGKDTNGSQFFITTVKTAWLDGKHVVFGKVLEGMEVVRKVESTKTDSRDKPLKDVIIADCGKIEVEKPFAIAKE
- experimental_details: Inhibitor binding to cyclophilin proteins by SPR, CypB
- Design: unit not given here
- conditions_used: 1:1 binding model
Starred links: 1 amine or outer side, 2 acyl side, 3 side chain; linkers in the order of their positions; H or OH if unused. Non-standard residues stand in square brackets, D forms with d. Residues, ends and D or L forms follow the SMILES beside them. X51 = C[C@H](CN1CCC2(COC2)C1)[C@@H](C(=O)[*:2])N(C)[*:1]; X76 = CO[C@H](CN1CCOCC1)[C@@H](C(=O)[*:2])N(C)[*:1]; MeBmt = C/C=C/C[C@@H](C)[C@@H](O)[C@H](NC)C(=O)O; NMeL = CN[C@@H](CC(C)C)C(=O)O; NMeV = CN[C@H](C(=O)O)C(C)C; dNMeA = CN[C@H](C)C(=O)O; Abu = CC[C@H](N)C(=O)O

compound: C/C=C/C[C@@H](C)[C@@H](O)[C@H]1C(=O)N[C@@H](CC)C(=O)N(C)[C@H](C)C(=O)N(C)[C@@H]([C@H](C)CN2CCC3(COC3)C2)C(=O)N[C@@H](C(C)C)C(=O)N(C)[C@@H](CC(C)C)C(=O)N[C@@H](C)C(=O)N[C@H](C)C(=O)N(C)[C@@H](CC(C)C)C(=O)N(C)[C@@H](CC(C)C)C(=O)N(C)[C@@H](C(C)C)C(=O)N1C [Compound 2.5.33] (cyclo(A[dA][NMeL][NMeL][NMeV][MeBmt][Abu][dNMeA][X51]V[NMeL]))
measured_on: cyclophilin B (CypB) (Homo sapiens (Human), UniProt P23284)
CypB Kd: 0.8
--
compound: C/C=C/C[C@@H](C)[C@@H](O)[C@H]1C(=O)N[C@@H](CC)C(=O)N(C)[C@H](C)C(=O)N(C)[C@@H]([C@@H](CN2CCOCC2)OC)C(=O)N[C@@H](C(C)C)C(=O)N(C)[C@@H](CC(C)C)C(=O)N[C@@H](C)C(=O)N[C@H](C)C(=O)N(C)[C@@H](CC(C)C)C(=O)N(C)[C@@H](CC(C)C)C(=O)N(C)[C@@H](C(C)C)C(=O)N1C [Compound 2.21.1] (cyclo(A[dA][NMeL][NMeL][NMeV][MeBmt][Abu][dNMeA][X76]V[NMeL]))
measured_on: cyclophilin B (CypB) (Homo sapiens (Human), UniProt P23284)
CypB Kd: 1.2

* * *

- Test system: peripheral blood mononuclear cells (PBMC)
- experimental_details: Anti-proliferative or immunosuppressive activity, BrdU incorporation in PHA-stimulated PBMC
- Assay type: cell-based
- conditions_used: PHA 3 μg/ml, 60 hour compound treatment; read-out: EMV PBMC IC50
Starred links: 1 amine or outer side, 2 acyl side, 3 side chain; linkers in the order of their positions; H or OH if unused. Non-standard residues stand in square brackets, D forms with d. Residues, ends and D or L forms follow the SMILES beside them. X26 = C[C@H](CN1CCn2c(nnc2C(F)(F)F)C1)[C@@H](C(=O)[*:2])N(C)[*:1]; X54 = CCOC(=O)N1CCN(C[C@@H](C)[C@@H](C(=O)[*:2])N(C)[*:1])CC1; X35 = C[C@H](CN1CCC2(CC1)OCCO2)[C@@H](C(=O)[*:2])N(C)[*:1]; X8 = COCCN1CCN(C[C@@H](C)[C@@H](C(=O)[*:2])N(C)[*:1])CC1; X39 = C[C@H](CN1CCC(C#N)CC1)[C@@H](C(=O)[*:2])N(C)[*:1]; X50 = C[C@H](CN1CCNC(=O)C1)[C@@H](C(=O)[*:2])N(C)[*:1]; X30 = C[C@H](CN1CCCOCC1)[C@@H](C(=O)[*:2])N(C)[*:1]; MeBmt = C/C=C/C[C@@H](C)[C@@H](O)[C@H](NC)C(=O)O; X2 = COCC[C@@H](C)[C@@H](C(=O)[*:2])N(C)[*:1]; X15 = COCC(COC)[C@@H](C(=O)[*:2])N(C)[*:1]; NMeL = CN[C@@H](CC(C)C)C(=O)O; NMeV = CN[C@H](C(=O)O)C(C)C; dNMeA = CN[C@H](C)C(=O)O; Abu = CC[C@H](N)C(=O)O
Entries annotated with measured IC50

compound: C/C=C/C[C@@H](C)[C@@H](O)[C@H]1C(=O)N[C@@H](CC)C(=O)N(C)[C@H](C)C(=O)N(C)[C@@H]([C@H](C)CN2CCCOCC2)C(=O)N[C@@H](C(C)C)C(=O)N(C)[C@@H](CC(C)C)C(=O)N[C@@H](C)C(=O)N[C@H](C)C(=O)N(C)[C@@H](CC(C)C)C(=O)N(C)[C@@H](CC(C)C)C(=O)N(C)[C@@H](C(C)C)C(=O)N1C [Compound 2.5.21] (cyclo(A[dA][NMeL][NMeL][NMeV][MeBmt][Abu][dNMeA][X30]V[NMeL]))
measured_on: peripheral blood mononuclear cells (PBMC)
IC50 [µM]: 4.5
--
compound: C/C=C/C[C@@H](C)[C@@H](O)[C@H]1C(=O)N[C@@H](CC)C(=O)N(C)[C@H](C)C(=O)N(C)[C@@H]([C@H](C)CN2CCN(C(=O)OCC)CC2)C(=O)N[C@@H](C(C)C)C(=O)N(C)[C@@H](CC(C)C)C(=O)N[C@@H](C)C(=O)N[C@H](C)C(=O)N(C)[C@@H](CC(C)C)C(=O)N(C)[C@@H](CC(C)C)C(=O)N(C)[C@@H](C(C)C)C(=O)N1C [Compound 2.5.31] (cyclo(A[dA][NMeL][NMeL][NMeV][MeBmt][Abu][dNMeA][X54]V[NMeL]))
measured_on: peripheral blood mononuclear cells (PBMC)
IC50 [µM]: 18.9
--
compound: C/C=C/C[C@@H](C)[C@@H](O)[C@H]1C(=O)N[C@@H](CC)C(=O)N(C)[C@H](C)C(=O)N(C)[C@@H]([C@H](C)CN2CCN(CCOC)CC2)C(=O)N[C@@H](C(C)C)C(=O)N(C)[C@@H](CC(C)C)C(=O)N[C@@H](C)C(=O)N[C@H](C)C(=O)N(C)[C@@H](CC(C)C)C(=O)N(C)[C@@H](CC(C)C)C(=O)N(C)[C@@H](C(C)C)C(=O)N1C [Compound 2.5.10] (cyclo([MeBmt][Abu][dNMeA][X8]V[NMeL]A[dA][NMeL][NMeL][NMeV]))
measured_on: peripheral blood mononuclear cells (PBMC)
IC50 [µM]: 16.8
--
compound: C/C=C/C[C@@H](C)[C@@H](O)[C@H]1C(=O)N[C@@H](CC)C(=O)N(C)[C@H](C)C(=O)N(C)[C@@H](C(COC)COC)C(=O)N[C@@H](C(C)C)C(=O)N(C)[C@@H](CC(C)C)C(=O)N[C@@H](C)C(=O)N[C@H](C)C(=O)N(C)[C@@H](CC(C)C)C(=O)N(C)[C@@H](CC(C)C)C(=O)N(C)[C@@H](C(C)C)C(=O)N1C [Compound 2.11] (cyclo(A[dA][NMeL][NMeL][NMeV][MeBmt][Abu][dNMeA][X15]V[NMeL]))
measured_on: peripheral blood mononuclear cells (PBMC)
IC50 [µM]: 7.9
--
compound: C/C=C/C[C@@H](C)[C@@H](O)[C@H]1C(=O)N[C@@H](CC)C(=O)N(C)[C@H](C)C(=O)N(C)[C@@H]([C@H](C)CN2CCn3c(nnc3C(F)(F)F)C2)C(=O)N[C@@H](C(C)C)C(=O)N(C)[C@@H](CC(C)C)C(=O)N[C@@H](C)C(=O)N[C@H](C)C(=O)N(C)[C@@H](CC(C)C)C(=O)N(C)[C@@H](CC(C)C)C(=O)N(C)[C@@H](C(C)C)C(=O)N1C [Compound 2.5.19] (cyclo(A[dA][NMeL][NMeL][NMeV][MeBmt][Abu][dNMeA][X26]V[NMeL]))
measured_on: peripheral blood mononuclear cells (PBMC)
IC50 [µM]: 12.6
--
compound: C/C=C/C[C@@H](C)[C@@H](O)[C@H]1C(=O)N[C@@H](CC)C(=O)N(C)[C@H](C)C(=O)N(C)[C@@H]([C@H](C)CN2CCC3(CC2)OCCO3)C(=O)N[C@@H](C(C)C)C(=O)N(C)[C@@H](CC(C)C)C(=O)N[C@@H](C)C(=O)N[C@H](C)C(=O)N(C)[C@@H](CC(C)C)C(=O)N(C)[C@@H](CC(C)C)C(=O)N(C)[C@@H](C(C)C)C(=O)N1C [Compound 2.5.28] (cyclo(A[dA][NMeL][NMeL][NMeV][MeBmt][Abu][dNMeA][X35]V[NMeL]))
measured_on: peripheral blood mononuclear cells (PBMC)
IC50 [µM]: 6.1
--
compound: C/C=C/C[C@@H](C)[C@@H](O)[C@H]1C(=O)N[C@@H](CC)C(=O)N(C)[C@H](C)C(=O)N(C)[C@@H]([C@H](C)CN2CCNC(=O)C2)C(=O)N[C@@H](C(C)C)C(=O)N(C)[C@@H](CC(C)C)C(=O)N[C@@H](C)C(=O)N[C@H](C)C(=O)N(C)[C@@H](CC(C)C)C(=O)N(C)[C@@H](CC(C)C)C(=O)N(C)[C@@H](C(C)C)C(=O)N1C [Compound 2.5.30] (cyclo(A[dA][NMeL][NMeL][NMeV][MeBmt][Abu][dNMeA][X50]V[NMeL]))
measured_on: peripheral blood mononuclear cells (PBMC)
IC50 [µM]: 34.1
--
compound: C/C=C/C[C@@H](C)[C@@H](O)[C@H]1C(=O)N[C@@H](CC)C(=O)N(C)[C@H](C)C(=O)N(C)[C@@H]([C@H](C)CCOC)C(=O)N[C@@H](C(C)C)C(=O)N(C)[C@@H](CC(C)C)C(=O)N[C@@H](C)C(=O)N[C@H](C)C(=O)N(C)[C@@H](CC(C)C)C(=O)N(C)[C@@H](CC(C)C)C(=O)N(C)[C@@H](C(C)C)C(=O)N1C [Compound 2.13] (cyclo(A[dA][NMeL][NMeL][NMeV][MeBmt][Abu][dNMeA][X2]V[NMeL]))
measured_on: peripheral blood mononuclear cells (PBMC)
IC50 [µM]: 2.6
--
compound: C/C=C/C[C@@H](C)[C@@H](O)[C@H]1C(=O)N[C@@H](CC)C(=O)N(C)[C@H](C)C(=O)N(C)[C@@H]([C@H](C)CN2CCC(C#N)CC2)C(=O)N[C@@H](C(C)C)C(=O)N(C)[C@@H](CC(C)C)C(=O)N[C@@H](C)C(=O)N[C@H](C)C(=O)N(C)[C@@H](CC(C)C)C(=O)N(C)[C@@H](CC(C)C)C(=O)N(C)[C@@H](C(C)C)C(=O)N1C [Compound 2.5.26] (cyclo(A[dA][NMeL][NMeL][NMeV][MeBmt][Abu][dNMeA][X39]V[NMeL]))
measured_on: peripheral blood mononuclear cells (PBMC)
IC50 [µM]: 11.6
